- Measurement Target: Acetylcholinesterase (Homo sapiens)
- Experimental Protocol: Acetylcholinesterase (AChE) small molecule antagonists: colormetric cell-based qHTS assay (AID 1347395); also: nearly all actives have a fitted effect of over 30% in size
- Setup Conditions: SH-SY5Y cells AChE activity, colorimetric (Ellman); series mostly up to 115 µM
Results filed as inconclusive are left out. Active and inactive are the calls of the source. Calls follow the shape of the full dose curve.
Please reply with one of these outcomes: TRUE = active, FALSE = inactive

Compound | Label Value
O=C(NC(=O)c1ccccc1Cl)Nc1ccc(OC(F)(F)F)cc1 | FALSE
CNC(=O)/C=C(\C)OP(=O)(OC)OC | TRUE
CCN(CC)CCN1C(=O)CN=C(c2ccccc2F)c2cc(Cl)ccc21 | FALSE
C#CCO | FALSE

Hi, sorry to bother you, what did the test record for Cc1ccn2nc(S(=O)(=O)Nc3c(F)cccc3F)nc2n1 ?
FALSE

Assay outcome for CCCCON=O : what was it?
FALSE

What classification did CCN(CC)C(=S)S end up with in this test?
FALSE

Call for entry CCN(CC)Cc1nccn1-c1ccc([N+](=O)[O-])cc1C(=O)c1ccccc1Cl :
FALSE

Per the records of this test, what outcome belongs to CC(=O)[O][Sn]([c]1ccccc1)([c]1ccccc1)[c]1ccccc1 ?
FALSE

Identify the outcome logged in this assay for the compound shown: O=Cc1ccccc1
FALSE
